Cited source for all entries: patent US20260224582A1

- Test Name: PK brain permeability after single oral gavage
- Assay type: in vivo, C57BL/6 mice
- Measurement Parameters: male, C57BL/6, mouse, brain, po, 10 mg/kg, mice, 10 mg/kg oral, 2 hours post dose; total corrected for unbound fraction in brain; read-out: free brain conc.
Readout: concentration at 2 h (µM)

Before answering, review these 6 worked examples.
Test Smiles	concentration at 2 h (µM)
O=C(N[C@H]1CC[C@H](NCC(F)(F)F)CC1)c1nc(-n2ccnc2)nn2cccc12	0.319
O=C(N[C@H]1CC[C@H](N2CC(F)(F)C2)CC1)c1cn2ncnc2c(-n2ccnc2)n1	0.555
O=C(N[C@H]1CC[C@H](NCC(F)(F)F)CC1)c1cn2ncnc2c(-n2ccnc2)n1	0.481
O=C(N[C@H]1CC[C@H](NCC(F)(F)F)CC1)c1cn2nccc2c(-n2ccnc2)n1	0.507
O=C(N[C@H]1CC[C@H](N2CC[C@@H](F)C2)CC1)c1nc(-n2ccnc2)nn2cccc12	0.181
O=C(N[C@H]1CC[C@H](NCC(F)(F)F)CC1)c1nc(-n2ccnc2)nc2ncccc12	0.236

I = O=C(N[C@H]1CC[C@H](N2CC[C@H](F)C2)CC1)c1nc(-n2ccnc2)nn2cccc12
II = O=C(N[C@H]1CC[C@H](N2CCC(F)(F)C2)CC1)c1cn2ncnc2c(-n2ccnc2)n1
Problem: Between the two listed entries I and II , which has its concentration at 2 h at the higher number? Answer by stating the label of the chosen item.
Result: II
